studyTarget: human serum albumin (HSA) (Homo sapiens, UniProt P02768)
Construct: three analogous domains (I, II, and III) having amino acid residues of 1–195, 196–383, and 384–585
Sequence (P02768 25-609): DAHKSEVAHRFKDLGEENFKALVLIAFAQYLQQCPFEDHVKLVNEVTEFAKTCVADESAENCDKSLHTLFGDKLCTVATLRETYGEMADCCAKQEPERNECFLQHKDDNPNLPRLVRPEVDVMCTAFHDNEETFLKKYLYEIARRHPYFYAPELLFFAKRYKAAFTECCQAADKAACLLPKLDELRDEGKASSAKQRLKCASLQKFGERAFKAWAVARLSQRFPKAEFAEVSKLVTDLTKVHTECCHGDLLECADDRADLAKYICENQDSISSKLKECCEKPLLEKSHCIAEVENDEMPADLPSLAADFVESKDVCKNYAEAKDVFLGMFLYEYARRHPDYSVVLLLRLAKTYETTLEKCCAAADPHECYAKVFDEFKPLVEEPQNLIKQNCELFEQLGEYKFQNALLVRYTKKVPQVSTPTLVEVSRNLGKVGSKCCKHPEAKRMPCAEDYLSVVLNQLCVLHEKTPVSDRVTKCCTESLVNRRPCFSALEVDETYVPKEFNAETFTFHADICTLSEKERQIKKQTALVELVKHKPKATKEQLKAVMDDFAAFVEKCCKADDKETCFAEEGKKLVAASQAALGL
assayDetails: Steady-state fluorescence quenching of HSA
Format: binding
assayContext: 310 K
Method: The steady-state fluorescence spectra were measured in the 290–450 nm range, at 296, 303, and 310 K, with the excitation wavelength at λ = 295 nm. To a 3.0 mL solution containing an appropriate concentration of HSA (1.00 × 10^−5 M), successive aliquots from a stock solution of each mesoionic under study (1.00 × 10^−3 M in DMSO) were added, with final concentrations of 0.17, 0.33, 0.50, 0.66, 0.83, 0.99, 1.15, and 1.32 × 10^−5 M. The addition was done manually by using a micro syringe. […]
So I've got a bunch of compounds here, and I need their ΔG° values.
Answer in kcal/mol, number only, no unit symbol.

Prompt: Report ΔG° for Clc1ccc(Nc2n[n+](-c3ccccc3)c(/C=C/c3ccccc3)s2)cc1.[Cl-] please.
Completion: -7.1

Prompt: Can you share its ΔG°? I mean this compound: Cc1ccc(Nc2n[n+](-c3ccccc3)c(/C=C/c3ccccc3)s2)cc1.[Cl-]
Completion: -6.91

Prompt: Request the reported ΔG° associated with COc1ccc(Nc2n[n+](-c3ccccc3)c(/C=C/c3ccccc3)s2)cc1.[Cl-]
Completion: -6.98

Prompt: # query: ΔG° of entry Brc1ccc(Nc2n[n+](-c3ccccc3)c(/C=C/c3ccccc3)s2)cc1.[Cl-]
Completion: -7.03
